All values here come from paper PMC9295122.

- ASSAY SYSTEM: PmSiaT (Proteus mirabilis)
- Construct: made in house
- Sequence (B4EZY7 whole entry): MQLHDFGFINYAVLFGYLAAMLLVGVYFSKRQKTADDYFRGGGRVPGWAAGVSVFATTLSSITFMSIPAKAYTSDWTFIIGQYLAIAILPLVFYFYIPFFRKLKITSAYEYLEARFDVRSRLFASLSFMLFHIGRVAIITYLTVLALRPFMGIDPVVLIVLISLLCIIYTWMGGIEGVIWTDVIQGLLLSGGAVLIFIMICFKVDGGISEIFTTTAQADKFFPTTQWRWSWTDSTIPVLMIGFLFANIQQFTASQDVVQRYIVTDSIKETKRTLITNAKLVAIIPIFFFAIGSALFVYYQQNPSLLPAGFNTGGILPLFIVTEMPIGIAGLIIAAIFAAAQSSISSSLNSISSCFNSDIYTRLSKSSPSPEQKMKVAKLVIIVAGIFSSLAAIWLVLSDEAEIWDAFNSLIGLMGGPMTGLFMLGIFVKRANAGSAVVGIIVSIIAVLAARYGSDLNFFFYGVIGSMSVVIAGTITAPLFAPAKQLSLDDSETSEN
- ASSAY INFO: nanoDSF thermal shift assay, PmSiaT
- Type: binding
- MEASUREMENT CONTEXT: PmSiaT, experiment 1, vs Neu5Ac; read-out: ΔTm 1
- Description: Nano-differential scanning fluorimetry (nanoDSF) is a high-throughput method that relies on the thermal stabilization of the folded protein state by a bound ligand.[33] The melting points of protein–inhibitor complexes were measured on a Prometheus NT.48 instrument from NanoTemper Technologies. […] The fluorescence was recorded at 330 and 350 nm and as a ratio of the two wavelengths. […] The melting temperatures have been measured in 3 separate experiments. […] This is calculated from Average 1. […]
MEASUREMENT LABEL: ΔTm (°C)

>  <COMPOUND>
CC(=O)N[C@H]1[C@H]([C@H](O)[C@H](O)CO)OC(O)(C(=O)O)C[C@@H]1O (stereo partly drawn) [Neu5Ac, 5-N-acetyl neuraminic acid, reference compound]

>  <ASSAY SYSTEM>
PmSiaT (Proteus mirabilis)

>  <TEST RESULT>
0

$$$$
>  <COMPOUND>
[N-]=[N+]=NCC(=O)N[C@H]1[C@H]([C@H](O)[C@H](O)CO)O[C@@](O)(C(=O)O)C[C@@H]1O [Compound 6h, reference compound]

>  <ASSAY SYSTEM>
PmSiaT (Proteus mirabilis)

>  <TEST RESULT>
-0.1

$$$$
>  <COMPOUND>
O=C(Cc1ccccc1)NC1C(O)CC(O)(C(=O)O)OC1C(O)C(O)CO (stereo not drawn) [Compound 6e]

>  <ASSAY SYSTEM>
PmSiaT (Proteus mirabilis)

>  <TEST RESULT>
-3.6

$$$$

----------
- ASSAY SYSTEM: SaSiaT (Staphylococcus aureus, UniProt A0A0H2XJ46)
- Sequence (A0A0H2XJ46 entry or part of it): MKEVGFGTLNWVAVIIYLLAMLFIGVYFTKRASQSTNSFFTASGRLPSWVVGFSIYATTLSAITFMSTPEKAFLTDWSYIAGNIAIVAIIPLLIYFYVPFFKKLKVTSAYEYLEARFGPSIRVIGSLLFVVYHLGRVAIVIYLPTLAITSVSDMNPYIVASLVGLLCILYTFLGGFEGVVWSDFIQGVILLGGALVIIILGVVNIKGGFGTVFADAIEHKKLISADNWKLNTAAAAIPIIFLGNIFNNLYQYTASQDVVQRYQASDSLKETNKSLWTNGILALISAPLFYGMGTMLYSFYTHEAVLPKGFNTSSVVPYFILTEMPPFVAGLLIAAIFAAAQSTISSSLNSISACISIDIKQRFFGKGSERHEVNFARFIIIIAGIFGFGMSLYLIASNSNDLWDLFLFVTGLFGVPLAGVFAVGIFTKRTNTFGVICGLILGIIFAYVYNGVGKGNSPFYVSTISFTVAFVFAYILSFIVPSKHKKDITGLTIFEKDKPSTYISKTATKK
- ASSAY INFO: nanoDSF thermal shift assay, SaSiaT
- Type: binding
- MEASUREMENT CONTEXT: SaSiaT Tm, average of experiment 3
# strict inequality: Average 3 < 50 °C yields Satisfied, everything else yields Not satisfied

>  <MOLECULE>
CC(=O)NC1C(OCc2cc(Br)cc(Br)c2)CC(O)(C(=O)O)OC1C(O)C(O)CO (centres unmarked)

>  <CATEGORY LABEL>
Not satisfied

$$$$
>  <MOLECULE>
CC(C)C(=O)NC1C(O)CC(O)(C(=O)O)OC1C(O)C(O)CO (centres unmarked)

>  <CATEGORY LABEL>
Satisfied

$$$$
>  <MOLECULE>
CC(=O)NC1C(OCc2ccc(Br)cc2)CC(O)(C(=O)O)OC1C(O)C(O)CO (centres unmarked)

>  <CATEGORY LABEL>
Not satisfied

$$$$
>  <MOLECULE>
CC(=O)NC1C(OCc2ccc(C#N)cc2)CC(O)(C(=O)O)OC1C(O)C(O)CO (centres unmarked)

>  <CATEGORY LABEL>
Not satisfied

$$$$

----------
- ASSAY INFO: LogD pH 7.4 shake flask
- Type: physicochemical
- MEASUREMENT CONTEXT: 1-octanol / phosphate buffer pH 7.4

>  <COMPOUND>
CC(=O)NC1C(OCc2cc(F)cc(F)c2)CC(O)(C(=O)O)OC1C(O)C(O)CO (stereo not drawn) [Compound 3e]

>  <logD>
< -0.5

$$$$
>  <COMPOUND>
CC(=O)NC1C(OCc2cc(Br)cc(Br)c2)CC(O)(C(=O)O)OC1C(O)C(O)CO (stereo not drawn) [Compound 3f]

>  <logD>
< 0

$$$$
>  <COMPOUND>
CC(=O)NC1C(OCc2ccccc2)CC(O)(C(=O)O)OC1C(O)C(O)CO (stereo not drawn) [Compound 3a]

>  <logD>
< -0.5

$$$$
